# Test system: SUP-B15
# assay-overview: selective drug sensitivity score (sDSS, relative to normal bone marrow) (sDSS (score)); higher = more potent and effective on the cell line relative to normal bone marrow cells;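 note: ALL cell lines in 384-well plates, five doses spanning 10,000-fold, each plate scaled between vehicle and 100 µmol/L benzalkonium chloride controls, sDSS an adapted area-under-curve metric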
# experimental-conditions: 72 h
observation-type: selective drug sensitivity score
Give bare numbers.

Batch request: selective drug sensitivity score for each of the following compounds.
1. Cc1nn(C)c(COc2ccc(N3CCN(S(=O)(=O)N(C)C)CC3)cc2)c1-c1cccc2c(CCCOc3cccc4ccccc34)c(C(=O)O)n(CCN3CCOCC3)c12 (top concentration 50000 nM)
2. Cc1c(N)nc([C@H](CC(N)=O)NC[C@H](N)C(N)=O)nc1C(=O)N[C@H](C(=O)N[C@H](C)[C@@H](O)[C@H](C)C(=O)N[C@H](C(=O)NCCc1nc(-c2nc(C(=O)NCCC[S+](C)C)cs2)cs1)[C@@H](C)O)[C@@H](O[C@@H]1O[C@@H](CO)[C@@H](O)[C@H](O)[C@@H]1O[C@H]1O[C@H](CO)[C@@H](O)[C@H](OC(N)=O)[C@@H]1O)c1c[nH]cn1 [Bleomycin] (top concentration 10000 nM)
3. COc1cc2nccc(Oc3ccc(NC(=O)Nc4cc(C)on4)c(Cl)c3)c2cc1OC [Tivozanib] (top concentration 10000 nM)
4. COc1ccc(C[C@H](NC(=O)[C@H](C)NC(=O)CN2CCOCC2)C(=O)N[C@@H](Cc2ccccc2)C(=O)[C@@]2(C)CO2)cc1 [ONX-0914] (top concentration 10000 nM)
5. COc1nc(N)nc2c1ncn2[C@@H]1O[C@H](CO)[C@@H](O)[C@@H]1O [Nelarabine] (top concentration 10000 nM)
6. O=C(c1ccc(C(=O)N2CCC(N3CCCC3)CC2)c(Nc2ccccc2)c1)N1CCC(N2CCCC2)CC1 [UNC1215] (top concentration 10000 nM)

[8.16, 6.44, 21.7, 11.5, 5.78, 0]

Would you mind listing selective drug sensitivity score for each of the following compounds?
1. Cc1cn(-c2cc(NC(=O)c3ccc(C)c(Nc4nccc(-c5cccnc5)n4)c3)cc(C(F)(F)F)c2)cn1 [Nilotinib] (top concentration 10000 nM)
2. NC(=O)NO [Hydroxyurea] (top concentration 1000000 nM)
3. CCc1cncnc1N1CCN(Cc2nc3cc(C(F)(F)F)ccc3[nH]2)CC1 (top concentration 10000 nM)

[31.6, 9.96, 3.46]

* * *

# Tested on: NALM-6
# assay-overview: selective drug sensitivity score (sDSS, relative to normal bone marrow) (sDSS (score)); higher = more potent and effective on the cell line relative to normal bone marrow cells
# experimental-conditions: 72 h
observation-type: selective drug sensitivity score
Numbers only.

{"columns": ["compound", "selective drug sensitivity score"],
 "data": [
  ["CCS(=O)(=O)c1cccc(-c2cc(C(=O)NC3CCN(C)CC3)c(C)c3[nH]c4ncc(C)cc4c23)c1 [TAK-901] (top concentration 1000 nM)", 9.66],
  ["C=CCn1c(=O)c2cnc(Nc3ccc(N4CCN(C)CC4)cc3)nc2n1-c1cccc(C(C)(C)O)n1 [AZD1775] (top concentration 10000 nM)", 11],
  ["CC(C)C[C@H](NC(=O)[C@H](Cc1ccccc1)NC(=O)c1cnccn1)B(O)O [Bortezomib] (top concentration 1000 nM)", 1.82],
  ["COc1ncc(-c2ccc3nccc(-c4ccnnc4)c3c2)cc1NS(=O)(=O)c1ccc(F)cc1F [Omipalisib] (top concentration 1000 nM)", 17.2],
  ["NS(=O)(=O)NCCNc1nonc1/C(=N/O)Nc1ccc(F)c(Br)c1 [Epacadostat] (top concentration 10000 nM)", -0.26],
  ["CCCS(=O)(=O)Nc1ccc(F)c(C(=O)c2c[nH]c3ncc(-c4ccc(Cl)cc4)cc23)c1F [Vemurafenib] (top concentration 10000 nM)", -1.14],
  ["CN1CCN(c2cc(C(=O)Nc3ccc4c(c3)-c3c(c(C(N)=O)nn3-c3ccc(F)cc3)CC4)c(Cl)cn2)CC1 [PHA-408] (top concentration 10000 nM)", 0.78],
  ["C[C@@H]1CN(CC(=O)Nc2ccc3c(c2)Cc2cccc(-c4cc(=O)cc(N5CCOCC5)o4)c2S3)C[C@H](C)O1 (top concentration 25000 nM)", 2.92],
  ["CC(=O)N(O)CCCCCNC(=O)CCC(=O)N(O)CCCCCNC(=O)CCC(=O)N(O)CCCCCN [Deferoxamine] (top concentration 10000 nM)", 5.06],
  ["O=C(O)c1ccc(-c2c[nH]c3ncc(-c4ccccc4)cc23)cc1C1CCCC1 (top concentration 10000 nM)", -1.44]
]}

Dear colleague, could you please provide selective drug sensitivity score for the compounds listed below?
1. Clc1ccc(Nc2nnc(Cc3ccncc3)c3ccccc23)cc1 [Vatalanib] (top concentration 10000 nM)
2. Cc1[nH]c2ccccc2c1CCNCc1ccc(/C=C/C(=O)NO)cc1 [Panobinostat] (top concentration 1000 nM)
3. CN(C)Cc1ccc(S(=O)(=O)n2ccc(/C=C/C(=O)NO)c2)cc1 [Resminostat] (top concentration 10000 nM)
4. O=C(/C=C/c1cccnc1)NCCCCC1CCN(C(=O)c2ccccc2)CC1 [Daporinad] (top concentration 1000 nM)
5. COc1c(OCCCN2CCOCC2)ccc2c1N=C(NC(=O)c1cnc(N)nc1)N1CCN=C21 [Copanlisib] (top concentration 1000 nM)
6. O=C(Nc1ccc(OC(F)(F)Cl)cc1)c1cnc(N2CC[C@@H](O)C2)c(-c2cc[nH]n2)c1 [Asciminib] (top concentration 1000 nM)
7. COc1nc(N)nc2c1ncn2[C@@H]1O[C@H](CO)[C@@H](O)[C@@H]1O [Nelarabine] (top concentration 10000 nM)
8. CN(C)CCCOc1ccc(-c2ccc3ncc4c(c3c2)n(C2CCOCC2)c(=O)n4C)cn1 [AZD0156] (top concentration 1000 nM)

1: 0; 2: 4.14; 3: 1.34; 4: 15.6; 5: 8.18; 6: 0.42; 7: -4.82; 8: -0.06

Record selective drug sensitivity score per entry; entries follow.
1. Cc1sc2c(c1C)C(c1ccc(Cl)cc1)=N[C@@H](CC(=O)Nc1ccc(OCCOCCOCCOCCNc3cccc4c3C(=O)N(C3CCC(=O)NC3=O)C4=O)cc1)c1nnc(C)n1-2 (some centres not stated) [ARV-825] (top concentration 300 nM)
2. Cc1cccc(CC(=O)N2CCc3c2ccc(-c2cn(C)c4ncnc(N)c24)c3F)n1 (top concentration 2500 nM)
3. CNC(=O)c1ccccc1Nc1cc(Nc2ccc(N3CCOCC3)cc2OC)ncc1C(F)(F)F [VS-4718] (top concentration 10000 nM)
4. CC(=O)OC[C@H]1O[C@@H]([S-])[C@H](OC(C)=O)[C@@H](OC(C)=O)[C@@H]1OC(C)=O.CCP(CC)CC.[Au+] [Auranofin] (top concentration 2500 nM)

[1.24, 4.32, 0.4, 5.34]

Could I get selective drug sensitivity score for every one of these entries?
1. c1cc(CN2CCCNCCNCCCNCC2)ccc1CN1CCCNCCNCCCNCC1 [Plerixafor] (top concentration 10000 nM)
2. S=C(NCc1ccc2c(c1)OCO2)N1CCN(c2ncnc3c2oc2ccccc23)CC1 [Amuvatinib] (top concentration 10000 nM)
3. Cn1c(=O)n(-c2ccc(C(C)(C)C#N)cc2)c2c3cc(-c4cnc5ccccc5c4)ccc3ncc21 [Dactolisib] (top concentration 1000 nM)

1: 0.3; 2: 3.86; 3: 6.36

Consider the following items and state reported selective drug sensitivity score for each.
1. CN(C)Cc1c(C(=O)NCCOc2ccc(C(=O)NO)cc2)oc2ccccc12 [Abexinostat] (top concentration 10000 nM)
2. C[C@@H]1CN(Cc2ccc(F)cc2)[C@@H](C)CN1C(=O)c1cc2c(C(=O)C(=O)N(C)C)cn(C)c2cc1Cl [Talmapimod] (top concentration 10000 nM)

1: 2.76; 2: 0

* * *

# Test system: NALM-16
# assay-overview: selective drug sensitivity score (sDSS, relative to normal bone marrow) (sDSS (score)); higher = more potent and effective on the cell line relative to normal bone marrow cells
# experimental-conditions: 72 h
# selective drug sensitivity score >= 0 gives met, anything below gives not met

Below are worked cases with known answers.
{"columns": ["compound", "discrete-label"],
 "data": [
  ["CN1CCN(c2ccc3nc(-c4c(N)c5c(F)cccc5[nH]c4=O)[nH]c3c2)CC1 [Dovitinib] (top concentration 10000 nM)", "met"],
  ["Cc1cccc(CC(=O)N2CCc3c2ccc(-c2cn(C)c4ncnc(N)c24)c3F)n1 (top concentration 2500 nM)", "not met"],
  ["NCCNc1ccc(NCCN)c2c1C(=O)c1ccncc1C2=O [Pixantrone] (top concentration 10000 nM)", "not met"]
]}

Evaluate Cc1[nH]c2ccccc2c1CCNCc1ccc(/C=C/C(=O)NO)cc1 [Panobinostat] (top concentration 1000 nM) : selective drug sensitivity score at minimum 0?
met

Try CN1CCN(CCOc2cc(OC3CCOCC3)c3c(Nc4c(Cl)ccc5c4OCO5)ncnc3c2)CC1 [Saracatinib] (top concentration 10000 nM) next.
not met

The origin of these recorded values is the supplement of paper PMC8967900.
